Hello, the source for this data is ChEMBL document CHEMBL1926648, in case you need it.

- System: Kocuria rosea
- procedure details: Antibacterial activity against Micrococcus roseus at 10000 ppm after 24 hrs by agar diffusion method
- Type: functional
- conditions used: read-out: IZ
parameter measured: zone of inhibition at 10000 ppm (mm)

compound	assay system	readout value
NC1=Nc2nc3ccccc3n2C2(NC(=O)CS2)N1 (stereo unspecified)	Kocuria rosea	4
N#Cc1[nH]/c(=N/c2nc3ccccc3[nH]2)[nH]c1N	Kocuria rosea	4
Cc1c[nH]/c(=N/c2nc3ccccc3[nH]2)[nH]1	Kocuria rosea	5
Nc1c[nH]/c(=N/c2nc3ccccc3[nH]2)[nH]1	Kocuria rosea	6
c1ccc(-c2c[nH]/c(=N/c3nc4ccccc4[nH]3)[nH]2)cc1	Kocuria rosea	3
NC1=Nc2nc3ccccc3n2C2(NC(=O)CC(=O)N2)N1	Kocuria rosea	1
